Answer each item with its documented remaining activity at 1 µM.
Target: BRSK2 (Homo sapiens)
Sequence (Q8IWQ3 1-736): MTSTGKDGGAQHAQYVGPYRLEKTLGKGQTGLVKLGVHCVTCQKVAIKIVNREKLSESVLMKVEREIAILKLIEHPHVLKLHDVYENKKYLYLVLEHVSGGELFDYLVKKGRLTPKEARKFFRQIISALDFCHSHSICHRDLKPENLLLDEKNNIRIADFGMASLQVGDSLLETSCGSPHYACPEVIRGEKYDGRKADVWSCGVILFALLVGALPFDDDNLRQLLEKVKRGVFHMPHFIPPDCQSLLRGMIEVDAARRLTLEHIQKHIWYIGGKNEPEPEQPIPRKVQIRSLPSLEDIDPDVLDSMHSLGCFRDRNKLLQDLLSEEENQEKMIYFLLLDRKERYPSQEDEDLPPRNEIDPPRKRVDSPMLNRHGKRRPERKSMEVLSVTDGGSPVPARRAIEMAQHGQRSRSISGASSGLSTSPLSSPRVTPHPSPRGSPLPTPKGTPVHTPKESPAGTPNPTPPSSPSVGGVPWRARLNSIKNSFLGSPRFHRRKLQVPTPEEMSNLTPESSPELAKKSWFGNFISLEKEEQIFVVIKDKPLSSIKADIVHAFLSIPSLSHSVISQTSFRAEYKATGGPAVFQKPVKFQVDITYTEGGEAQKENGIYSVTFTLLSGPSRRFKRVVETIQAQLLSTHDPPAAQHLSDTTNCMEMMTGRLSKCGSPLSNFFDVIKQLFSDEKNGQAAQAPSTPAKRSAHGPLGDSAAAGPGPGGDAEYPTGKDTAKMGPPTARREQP
Experiment: Kinase profiling (radiometric filter-binding)
Format: biochemical
Settings: BRSK2, 1 µM inhibitor; read-out: Residual activity, %
Square brackets hold non-standard residues; d marks the D form. Peptide text beside a SMILES is read from it. * marks the point of attachment. X3 = O=C(CCCCCNCc1nc2c(sc3cc(Br)cnc32)c(=O)[nH]1)*
Give bare numbers, in %.

N=C(N)NCCC[C@@H](NC(=O)CNC(=O)[C@@H](CCCNC(=N)N)NC(=O)[C@@H](CCCNC(=N)N)NC(=O)CCCCCCCNCc1nc2c(sc3ccc(Br)cc32)c(=O)[nH]1)C(=O)N[C@H](CCCCN)C(N)=O ... 108
N=C(N)NCCC[C@@H](NC(=O)CNC(=O)[C@@H](CCCNC(=N)N)NC(=O)[C@@H](CCCNC(=N)N)NC(=O)Cn1cc(CNCc2nc3c(sc4ccc(Br)cc43)c(=O)[nH]2)nn1)C(=O)N[C@H](CCCCN)C(N)=O ... 96
N=C(N)NCCC[C@@H](NC(=O)CCCCCNCc1nc2c(sc3cc(Br)cnc32)c(=O)[nH]1)C(=O)N[C@H](CCCNC(=N)N)C(=O)N[C@H](CCCNC(=N)N)C(=O)N[C@H](CCCNC(=N)N)C(=O)N[C@H](CCCNC(=N)N)C(=O)N[C@H](CCCNC(=N)N)C(=O)N[C@H](CCCCN)C(N)=O [ARC-3126, BPTP-Ahx-(D-Arg)6-D-Lys-NH2] (X3-[dR][dR][dR][dR][dR][dR][dK]-NH2) ... 100
N=C(N)NCCC[C@@H](NC(=O)CCCCCNC(=O)Cn1cnc2c(I)c(I)c(I)c(I)c21)C(=O)N[C@H](CCCNC(=N)N)C(=O)N[C@H](CCCNC(=N)N)C(=O)N[C@H](CCCNC(=N)N)C(=O)N[C@H](CCCNC(=N)N)C(=O)N[C@H](CCCNC(=N)N)C(=O)N[C@H](CCCCN)C(N)=O ... 107

Now for a further molecule.
## Task Request the reported remaining activity at 1 µM associated with `N=C(N)NCCC[C@@H](NC(=O)CNC(=O)[C@@H](CCCNC(=N)N)NC(=O)[C@@H](CCCNC(=N)N)NC(=O)CCCCCCCNCc1nc2c(sc3cc(Br)cnc32)c(=O)[nH]1)C(=O)N[C@H](CCCCN)C(N)=O`
## Result 124

The values you see were collected from paper PMC8307404.
